Test system: SNB-75
protocol_summary: NCI tumour cell line growth inhibition, 48 h
Calls of active or inactive are those of the source. No stated cut-off is given here; in the data, active = GI50 up to about 1.1 µM and inactive = higher.
GI50 values, listed per item
observed_property: GI50

compound	endpoint_result
O=C(CC1C(=O)Nc2ccccc2S1(=O)=O)Nc1cccc(Cl)c1 (stereo not given)	16.8 µM (inactive)
O=C1c2cccc3cc([N+](=O)[O-])cc(c23)C(=O)N1CCCN1CCN(CCCN2C(=O)c3cccc4cc([N+](=O)[O-])cc(c34)C2=O)CC1	1.38 µM (inactive)
CC1=CC(=O)/C(=C/n2c(=S)[nH]c3cc(C)ccc32)C(=O)O1	> 100 µM (inactive)
Cc1cc(/N=C/c2ccc(Cl)cc2)n(-c2ccccc2)n1	32.4 µM (inactive)
COc1ccc2[nH]cc(CN3CCC(CO)(c4ccccc4)CC3)c2c1	27 µM (inactive)

* * *

Test system: A498
protocol_summary: NCI tumour cell line growth inhibition, 48 h
Calls of active or inactive are those of the source. Cut-off read from the data, not from the text of the source: active = GI50 up to about 1.1 µM and inactive = higher.
Classes used: active, inactive

compound	label
CCN(CC)c1ccc(C2N3CCCCC3[C@@H]3c4[nH]c5ccccc5c4CCN23)cc1 (stereo not given in full)	inactive
C/C(=N\NC(=S)N1CCCCCC1)c1ccccn1	active
CC(=O)Nc1ccc(C(=O)NN2C(=O)C(Cl)C2c2ccc([N+](=O)[O-])cc2)cc1 (stereo not given)	inactive
CCOC(=O)NC(Nc1ccc([N+](=O)[O-])cc1)(C(F)(F)F)C(F)(F)F	inactive
COc1ccc(CCNC(=O)Cc2ccccc2CCO)cc1OC	inactive

* * *

System: SK-OV-3
protocol_summary: NCI tumour cell line growth inhibition, 48 h
The source made the active and inactive calls. Rule as the data show it: active = GI50 up to about 1.1 µM and inactive = higher.

compound	target_under_test	GI50
CC(O)C1(CNc2cc(Cl)nc(N)n2)CCC1 (stereo unspecified)	SK-OV-3	> 100 µM (inactive)
Cc1c(C(=O)c2ccccc2C(=O)O)c2ccccc2n1C	SK-OV-3	> 100 µM (inactive)
Cn1c2c(c3ccccc31)CCN1C(=O)C3SC21C1C(=O)N(c2ccccc2)C(=O)C31 (stereo unspecified)	SK-OV-3	> 100 µM (inactive)
Cc1ccc2nc3c(C(=O)NCCN(C)C)cccc3cc2c1	SK-OV-3	2.39 µM (inactive)
Cc1c(C(=O)CSc2nc3cc([N+](=O)[O-])ccc3[nH]2)c(=O)n(-c2ccccc2)n1C	SK-OV-3	> 100 µM (inactive)
COc1ccc(-c2cc(-c3cc(C)cc(Br)c3O)no2)cc1	SK-OV-3	6.3 µM (inactive)
CN1CCN(c2ccc3[nH]c(-c4ccc5[nH]c(CCCc6ccc(N(CCCl)CCCl)cc6)nc5c4)nc3c2)CC1	SK-OV-3	> 100 µM (inactive)
O=C(O)CP(=O)(O)O	SK-OV-3	> 100 µM (inactive)
COC(=O)C(=O)C(C#N)c1cccc(Cl)c1 (stereo unspecified)	SK-OV-3	> 100 µM (inactive)
COC(=O)Nc1nc2cc(C(=O)c3ccc[nH]3)ccc2[nH]1	SK-OV-3	2.03 µM (inactive)
CCOc1ccc(O)cc1[P+](c1ccccc1)(c1ccccc1)c1ccccc1	SK-OV-3	6.53 µM (inactive)

* * *

System: NCI-H226
protocol_summary: NCI tumour cell line growth inhibition, 48 h
Activity calls are given as the source filed them. No stated cut-off is given here; in the data, active = GI50 up to about 1.1 µM and inactive = higher.

molecule	GI50
Cc1c2ccncc2c(C)c2c1[nH]c1ccc(Oc3ccccc3)cc12	14.3 µM (inactive)
COC(=O)C1=C(C)NC2=C(C(=O)c3ccccc32)C1c1c[nH]nc1-c1ccccc1 (centres undefined)	41.2 µM (inactive)
O=C1C2C(c3ccccc3)NC(c3ccccc3)C1C(c1ccccc1)NC2c1ccccc1 (centres undefined)	> 100 µM (inactive)
CCOC(=O)N1CCN(c2ccc3c(C)cc(C)nc3n2)CC1	> 100 µM (inactive)

* * *

Test system: K562
protocol_summary: NCI tumour cell line growth inhibition, 48 h
Where a name gives a salt, the structure may show the parent alone. Activity calls are given as the source filed them. Rule as the data show it: active = GI50 up to about 1.1 µM and inactive = higher. Non-standard residues stand in square brackets, D forms with d. Residues, ends and D or L forms follow the SMILES beside them. *: point of attachment. Ac5c = NC1(C(=O)O)CCCC1; Boc = CC(C)(C)OC(=O)*; tBu = CC(C)(C)*
Outcomes: T (active), F (inactive)

compound	label
CC/C=C/C(CC)C/C(C)=C\[C@]1(CC)C[C@H](CC)[C@H](CC(=O)O)OO1 (some centres not stated)	T
COC(=O)/C=C/c1ccc2nncnc2c1.COC(=O)/C=C\c1ccc2nncnc2c1	F
C[C@]12CC[C@@H]3c4ccc(OS(N)(=O)=O)cc4CC[C@H]3[C@@H]1CCC2=O [EMATE]	F
C=C1C[C@@H]2O[C@H]3[C@H]4[C@@H](C[C@@H](C)[C@@H](OC(C)=O)[C@H]42)[C@@H](C)CO[C@@]3(C)[C@H](OC(=O)CCCCCCC)CC1=O	F
CN1CCN(c2ccc3[nH]c(-c4ccc5[nH]c(CCCc6ccc(N(CCCl)CCCl)cc6)nc5c4)nc3c2)CC1	F
Cc1c(O)c(=O)ccn1CCN	F
C[C@]12CC[C@H]3[C@@H](CC[C@]4(O)C[C@@H](O)CC[C@]34C=O)[C@@]1(O)CC[C@@H]2C1=CC(=O)OC1	T
O=C(c1cc2ccccc2cc1O)N1CCCCC1	F
O=C1OC2C(O)COC2(O)C1(O)C(C[N+](=O)[O-])c1ccc(Cl)cc1 (configuration not stated)	F
CC(OC(C)(C)C)C(NC(=O)C(CCCCNC(=O)OC(C)(C)C)NC(=O)C(Cc1c[nH]c2ccccc12)NC(=O)C(N)Cc1ccccc1)C(=O)NC(Cc1ccccc1)C(=O)NC1(C(=O)O)CCCC1 (configuration not stated) (H-FWK(Boc)T(tBu)F[Ac5c]-OH; configuration not given here)	F
C=CCN1C(=O)CS/C1=N\NC(=O)CSc1nc2ccccc2c(=O)n1CC	F
O=C(CCc1ccc(O)c(O)c1)c1ccc(O)c(O)c1O	F
CC(N)C(=O)c1ccc(O)cc1 (configuration not stated)	F
CN(N=O)C(=N)NC(=O)c1ccccc1	F
Cc1c(C#N)c2nnn(-c3ccc([N+](=O)[O-])cc3)c(=O)n2c1-c1ccccc1	F
CC(=O)O[C@H]1CC[C@H]2[C@@H]3CC[C@H]4Nc5c(cnn5S(C)(=O)=O)C[C@]4(C)[C@H]3CC[C@]12C	F
Cc1cccc2c1CC(Cc1ccccc1C(=O)O)C2=O (configuration not stated)	F
CCOP(=O)(OCC)/C(C#N)=C\c1ccc(OC(C)=O)cc1	F
CCCCN(CCCC)CC(C(=O)Nc1ccc([N+](=O)[O-])cc1[N+](=O)[O-])/C(C)=N\NC(=S)NN (configuration not stated)	F
O=[N+]([O-])c1cccc2nc3ccccc3c(NCCc3cccc[n+]3[O-])c12	T
CN1C2CC(=O)CC1[C@H](O)[C@@H]2O	F
O=C1CC2(C[C@@H]3CCCCCCCCC[C@@H](C3)C2)N1 (some centres not stated)	F
COc1ccc2ccc3oc(=O)c(C)cc3c2c1	F
CC1OC1C(=O)C1(O)C(C)C(O)C23OC2(C(O)c2c(O)cccc2C3=O)C1O (configuration not stated)	T
CCOC(=O)c1cccc([N+](=O)[O-])c1N	F
COc1cc(/C=C/C(=O)CC(=O)/C=C/c2cc(C)c(O)c(OC)c2)cc(C)c1O	F
CC(C)C(C/C=C1\CC(CO)(COC(=O)C2CCCCC2)OC1=O)C(C)C (configuration not stated)	F
NCCN1C(=O)CN=C(c2ccc(Cl)cc2)c2cc(Cl)ccc21	F
Cn1c2ccccc2c(=NNc2ccc(C(=O)O)cc2)c2ccccc21	F
C[C@@H]([C@H]1CC[C@@]2(C)[C@@H]3CC[C@@H]4C(=CC3=CC[C@]12C)CC[C@H](N(C)C)C4(C)C)N(C)C	F
CN1[C@@H]2C[C@@H](OC(=O)[C@H](CO)c3ccccc3)C[C@H]1[C@@H]1O[C@@H]12 [SCOPOLAMINE HYDROBROMIDE]	F
CCCN1CN(C(C(=O)N[C@@H]2C(=O)N3C2SC(C)(C)C3C(=O)O)c2ccccc2)CSC1=S (some centres not stated)	F
CC(=O)OC1[C@@H](OC(C)=O)CN(OCc2ccccc2)C[C@H]1OC(C)=O (some centres not stated)	F
CC(C)C(CCOS(=O)(=O)O)CCC(C)[C@H]1[C@@H](O)C(O)C2[C@]3(O)C[C@@H](O)C4(O)C[C@@H](O)CC[C@]4(C)C3CC[C@@]21C (some centres not stated)	F
O=S1(=O)CS(=O)(=O)OCCCCCO1	F
COC1CC(COCc2ccccc2)CC(OC)O1 (configuration not stated)	F
O=C(Nc1ccc(Cl)cc1)[C-](C(=O)c1ccc(Br)cc1)[n+]1cccc(-c2ccc(Cl)cc2)n1	F

* * *

Tested on: IGROV-1
protocol_summary: NCI tumour cell line growth inhibition, 48 h
Where a name gives a salt, the structure may show the parent alone. Calls of active or inactive are those of the source. Cut-off read from the data, not from the text of the source: active = GI50 up to about 1.1 µM and inactive = higher.
Outcomes: active, inactive

compound	label
Cc1c2ccncc2c(C)c2c1[nH]c1ccc(Oc3ccccc3)cc12	inactive
CC1CC(N2CCOCC2)=Nc2ccccc2N1C (stereo not given)	inactive
Cc1ccc(C)n2c1nc1ccccc12	inactive
NC(=O)C(=Cc1ccc(CP(=O)(O)O)cc1)C(N)=O	inactive
C/C=C(\C)C(=O)N1c2ccccc2CC1c1c(C)[nH]c2ccccc12 (stereo not given)	inactive
CC12CCC([C@H](Nc3cc(C(F)(F)F)cc(C(F)(F)F)c3)C1=O)C2(C)C (stereo not given in full)	inactive
O=C1OC(C2Cc3ccc4c(c3C2=O)CCCC4)c2ccccc21 (stereo not given)	inactive
Cc1cc(S(=O)(=O)NC(=C(C#N)C#N)[n+]2ccc(N(C)C)cc2)c([S-])cc1Cl	inactive
CC/C=C/C(CC)C/C(C)=C\[C@]1(CC)C[C@H](CC)[C@H](CC(=O)O)OO1 (stereo not given in full)	active
CC(C)CC1[C@@H](OCc2ccccc2)COS(=O)N1Cc1ccccc1 (stereo not given in full)	inactive
CN1[C@@H]2C[C@@H](OC(=O)[C@H](CO)c3ccccc3)C[C@H]1[C@@H]1O[C@@H]12 [SCOPOLAMINE HYDROBROMIDE]	inactive
C/C(=N\NC(=S)N1CCCCCC1)c1ccccn1	active
Cc1c(/C=N/NC(=O)c2cc(Br)cc(Br)c2O)c(=O)n(-c2ccccc2)n1C	inactive
CC(C)OC(=O)NNc1cc(Cl)ccc1Cl	inactive
CC(C)(C)OC(=O)N1N=NC2C3CC(=O)C(O3)C21 (stereo not given)	inactive
Cc1cc2c(cc1C)OC(=O)CC2	inactive
O=C(c1cc(Cl)ccc1Cl)N1CCN(c2ccc(Cl)c(Cl)c2)CC1	inactive
CC(=O)NC1C(OCc2ccccc2)OC(CO)C(O)C1OCC(=O)NC(C)C(=O)NC(CCC(=O)NCCCCCC(=O)Nc1ccc2c(c1)CN1C(=O)c3ccccc3C1=N2)C(N)=O (stereo not given)	inactive
CCOc1cc(-c2nc3ccccn3c2/N=C/c2cc(Br)ccc2O)ccc1O	inactive
O=C1CSC(c2ccc(Cl)cc2)N1c1ccc(-n2c(-c3ccccc3)nc3ccccc3c2=O)cc1 (stereo not given)	inactive
CCOC(=O)C(Cl)(Cl)/S(=N\S(=O)(=O)c1ccccc1)NC(=O)c1ccccc1 (stereo not given)	inactive
Nc1ncnc2c1ncn2C1OC(CSC(F)F)C(O)C1O (stereo not given)	inactive
CN1C(=O)c2cccc3c([N+](=O)[O-])ccc(c23)C1=O	inactive
Cc1cn([C@@H]2C[C@@H]2CO)c(=O)[nH]c1=O	inactive
COc1ccc2c(c1)C1=NCCN(CCN(C)C)c3ccc([N+](=O)[O-])c(c31)N2	active
NCc1ccccc1.O=C(O)NCc1ccccc1	inactive
Cn1c(=O)c2[nH]c(N/N=C3/SCC(=O)N3Cc3ccccc3)nc2n(C)c1=O	inactive
O=C1/C(=C2/C(=O)N(c3ccccc3)c3ccccc32)Nc2ccccc21	inactive
CCOC(=O)Cn1nc2ccc(Nc3nc4ccccc4nc3C(=O)OCC)cc2n1	inactive
COc1ccc(C2Oc3c(cccc3OC)C=C2[N+](=O)[O-])cc1OC (stereo not given)	inactive
